Reference source for all entries: patent US20070065439A1

System: Recombinant human IL-1beta (rhIL-1b) (human, UniProt P01584 117-269)
Assay Remarks: cell-based or functional assay
Parameter Measured: % IL-6 production, supernatant 1:20 dilut. (%)

# Binder, Unit Descriptor, Reported Measurement
measured = [
    ("6.33.1 (antibody, human IgG4, V domains shown, lambda; also called mAb 6.33.1) VH: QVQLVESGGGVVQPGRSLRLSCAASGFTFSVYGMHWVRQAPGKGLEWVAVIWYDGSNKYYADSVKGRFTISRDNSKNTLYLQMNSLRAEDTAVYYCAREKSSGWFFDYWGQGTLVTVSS VL: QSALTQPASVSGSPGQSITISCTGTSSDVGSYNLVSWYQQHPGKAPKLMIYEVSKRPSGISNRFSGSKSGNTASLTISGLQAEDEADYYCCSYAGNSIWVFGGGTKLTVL", "%", 22),
    ("9.2.1 (antibody, human IgG4, V domains shown, lambda) VH: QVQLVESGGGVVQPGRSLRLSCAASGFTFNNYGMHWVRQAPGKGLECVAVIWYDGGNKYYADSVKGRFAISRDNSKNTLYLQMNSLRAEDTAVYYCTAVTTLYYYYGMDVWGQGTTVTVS VL: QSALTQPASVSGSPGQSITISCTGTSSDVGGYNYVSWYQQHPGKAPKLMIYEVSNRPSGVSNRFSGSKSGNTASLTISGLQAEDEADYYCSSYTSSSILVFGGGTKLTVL", "%", 16),
    ("9.26.1 (antibody, human IgG4, V domains shown, lambda; also called 9.26.3) VH: QVQLVESGGGVVQPGRSLRLSCAASGFTFNNYGMHWVRQAPGKGLECVAVIWYDGGNKYYADSVKGRFAISRDNSKNTLYLQMNSLRAEDTAVYYCTAVTKLNYYYGMDVWGQGTTVTVS VL: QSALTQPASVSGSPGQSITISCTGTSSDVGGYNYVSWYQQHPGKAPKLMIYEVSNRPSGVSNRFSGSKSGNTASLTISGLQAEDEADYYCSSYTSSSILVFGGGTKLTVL", "%", 27),
    ("9.19.1 (antibody, human IgG4, V domains shown, lambda; also called mAb 9.19.1) VH: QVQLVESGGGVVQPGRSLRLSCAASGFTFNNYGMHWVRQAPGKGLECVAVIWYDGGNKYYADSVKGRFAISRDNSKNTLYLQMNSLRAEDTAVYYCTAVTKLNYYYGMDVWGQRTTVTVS VL: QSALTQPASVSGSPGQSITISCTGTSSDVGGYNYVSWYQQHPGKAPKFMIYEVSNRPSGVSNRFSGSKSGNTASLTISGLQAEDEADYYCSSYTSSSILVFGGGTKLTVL", "%", 15),
    ("5.36.1 (antibody, human IgG4, V domains shown, kappa) VH: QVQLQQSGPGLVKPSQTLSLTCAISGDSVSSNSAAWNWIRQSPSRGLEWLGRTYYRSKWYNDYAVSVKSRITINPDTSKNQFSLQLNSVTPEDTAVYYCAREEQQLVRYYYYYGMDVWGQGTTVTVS VL: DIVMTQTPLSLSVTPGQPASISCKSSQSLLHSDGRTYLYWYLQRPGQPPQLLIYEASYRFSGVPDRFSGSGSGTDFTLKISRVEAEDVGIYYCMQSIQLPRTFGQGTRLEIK", "%", 18),
    ("6.26.1 (antibody, human IgG4, V domains shown, lambda; also called 6.26.4) VH: QLQLQESGPGLVKPSETLSLTCTVSGGSISRSSYYWGWIRQPPGKGLEWMGNIYYSGSTHYNPSLKSRVTISVDTSKNQFSLKLSSVTAADTAVFYCAKGREYISSSGYGMDVWGQGTTVTVS VL: SYELTQPPSVSVSPGQTASITCSGDKLGNKYVCWYQQKPGQSPVLVIFQDSRRPSGIPERFSGSNSGNTATLTISGTQAMDEADYYCQAWDTSTVIFGGGTKLTVL", "%", 22),
    ("9.54.1 (antibody, human IgG4, V domains shown, lambda; also called 9.54.2) VH: QVQLVESGGGVVQPGRSLRLSCAASGFTFSSFGMHWVRQAPGKGLEWVAVIWYDGSNKYYADSVKGRFTISRDNSKNTLYLQMNSLRAEDTAVYYCARDPNYDILTGYYYYGMDVWGQGTTVTVS VL: SSELTQDPAVSVALGQTVRITCQGDILRTYYASWYQQKPGQAPVLVIYGKNDRPSGIPDRFSGSSSGNTASLTITGAQAEDEADYYCDSRDNTVTHLVFGGGTKLTVL", "%", 36),
    ("9.31.1 (antibody, human IgG4, V domains shown, lambda; also called 9.31.3) VH: QVQLVESGGGLVKPGGSLRLSCAASGFTFSDYYMSWIRQAPGKGLEWVSYIRSSGSTIYYADSVKGRFTISRDNAKNSLYLQMNSLRAEDTAVYYCARTPYSGRYHWYFDLWGRGTLVTVS VL: SYELTQPPSVSVSPGQTARITCSGDALPIKYAYWYQHKSGQAPVLVIYEDSKRPSGIPERFSGSSSGTMATLTISGAQVEDEADYYCYSTDSSGNHRVFGGGTKLTVL", "%", 13),
    ("5.5.1 (antibody, IgG4, V domains shown, lambda; also called mAb 5.5.1; Ab 5.5.1) VH: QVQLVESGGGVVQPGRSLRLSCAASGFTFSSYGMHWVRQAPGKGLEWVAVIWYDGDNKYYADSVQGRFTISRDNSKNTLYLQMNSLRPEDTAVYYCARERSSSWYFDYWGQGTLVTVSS VL: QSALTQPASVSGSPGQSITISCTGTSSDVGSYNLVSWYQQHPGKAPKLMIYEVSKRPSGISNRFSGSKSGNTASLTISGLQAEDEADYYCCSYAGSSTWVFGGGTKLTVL", "%", 6),
    ("9.11.1 (antibody, human IgG4, V domains shown, lambda; also called 9.11.3) VH: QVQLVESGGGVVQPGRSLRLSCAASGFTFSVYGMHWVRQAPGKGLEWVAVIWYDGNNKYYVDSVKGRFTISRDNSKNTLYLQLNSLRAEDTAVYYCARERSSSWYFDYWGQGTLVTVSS VL: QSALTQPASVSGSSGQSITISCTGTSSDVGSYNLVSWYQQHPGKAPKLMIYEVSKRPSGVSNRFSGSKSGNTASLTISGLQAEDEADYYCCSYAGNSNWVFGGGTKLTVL", "%", 10),
    ("8.18.1 (antibody, human IgG4, V domains shown, lambda; also called mAb 8.18.1) VH: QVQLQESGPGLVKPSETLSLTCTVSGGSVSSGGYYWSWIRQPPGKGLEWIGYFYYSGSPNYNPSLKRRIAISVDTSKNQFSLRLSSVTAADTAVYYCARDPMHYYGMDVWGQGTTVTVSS VL: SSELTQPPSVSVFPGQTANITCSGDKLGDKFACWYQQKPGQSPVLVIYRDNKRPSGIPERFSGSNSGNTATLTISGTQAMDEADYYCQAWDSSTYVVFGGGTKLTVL", "%", 9),
]
